- assayed.system: 5-hydroxytryptamine receptor 3A (Cavia porcellus)
- Sequence (O70212 whole entry): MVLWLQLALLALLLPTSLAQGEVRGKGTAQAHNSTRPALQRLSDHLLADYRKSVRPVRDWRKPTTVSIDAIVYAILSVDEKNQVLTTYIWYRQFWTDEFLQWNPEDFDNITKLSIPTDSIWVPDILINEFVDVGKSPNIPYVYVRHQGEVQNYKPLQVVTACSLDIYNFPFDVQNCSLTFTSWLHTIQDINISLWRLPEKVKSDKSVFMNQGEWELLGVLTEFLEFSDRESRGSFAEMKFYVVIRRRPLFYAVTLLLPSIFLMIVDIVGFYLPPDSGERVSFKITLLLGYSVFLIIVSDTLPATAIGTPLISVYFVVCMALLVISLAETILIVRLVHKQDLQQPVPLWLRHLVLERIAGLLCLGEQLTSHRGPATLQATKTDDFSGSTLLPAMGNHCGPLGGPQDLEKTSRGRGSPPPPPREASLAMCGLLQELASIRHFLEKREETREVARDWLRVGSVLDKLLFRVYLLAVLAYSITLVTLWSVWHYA
- experimental.protocol: Antagonist activity at 5-HT3 receptor in guinea-pig ileum assessed as inhibition of 5HT-induced contraction
Could you please report measured IC50 for the items listed next?

// worked examples, IC50 included
COc1ccc(N2CCN(CCCN3CCN(C(=O)c4ccccc4)CC3)CC2)cc1 :: > 10 µM
COc1ccccc1N1CCN(CCN2CCN(c3ncccc3C#N)CC2)CC1 :: > 10 µM
N#Cc1cccnc1N1CCN(CCCN2CCN(c3ccccc3)CC2)CC1 :: > 3 µM
O=C1CCc2ccc(OCCCCN3CCN(C(=O)c4ccccn4)CC3)cc2N1 :: > 10 µM

Consider now this further compound.
Given O=C(c1ccccc1)N1CCN(CCCN2CCN(c3cccc(Cl)c3Cl)CC2)CC1 , state its recorded IC50.
> 3 µM
